- Test system: Staphylococcus aureus
- TEST_NAME: Antibacterial activity against Staphylococcus aureus ATCC 29213 by microbroth dilution method
- Type: functional
Known MIC of a selection of compounds
QUANTITY_MEASURED: MIC (µM)

1. CC(=O)Cn1cc(-c2csc(C)n2)c(=O)c2cc(F)cc(F)c21 : 1530
2. CC(=O)Cn1cc(-c2csc(C)n2)c(=O)c2cc(F)ccc21 : 405
3. C/C(Cn1cc(-c2csc(N)n2)c(=O)c2cc(F)cc(F)c21)=N\NC(N)=S : 78
4. C/C(Cn1cc(-c2csc(C)n2)c(=O)c2cc(F)cc(F)c21)=N\NC(N)=S : 629
5. CC(=O)Cn1cc(-c2csc(C)n2)c(=O)c2cc(F)c(F)cc21 : 766
6. CCn1cc(C(=O)O)c(=O)c2cc(F)c(N3CCNCC3)cc21 : 3
7. Nc1nc(-c2c[nH]c3cc(F)c(F)cc3c2=O)cs1 : 459
8. Cc1nc(-c2c[nH]c3c(F)cccc3c2=O)cs1 : 1970
9. C/C(Cn1cc(-c2csc(N)n2)c(=O)c2cc(F)c(Cl)cc21)=N\NC(N)=S : 5
10. Cc1nc(-c2c[nH]c3ccc(F)cc3c2=O)cs1 : 985
11. CC(=O)Cn1cc(-c2csc(N)n2)c(=O)c2cc(F)c(Cl)cc21 : 365
12. Nc1nc(-c2c[nH]c3ccc(F)cc3c2=O)cs1 : 490
13. CC(=O)Cn1cc(-c2csc(N)n2)c(=O)c2cc(F)cc(F)c21 : 382
14. Nc1nc(-c2c[nH]c3c(F)cc(F)cc3c2=O)cs1 : 918
15. CCOC(=O)c1cn(C/C(C)=N/NC(N)=S)c2cc(Cl)c(F)cc2c1=O : 643
16. Cc1nc(-c2c[nH]c3cc(Cl)c(F)cc3c2=O)cs1 : 871
17. CC(=O)Cn1cc(C(C)=O)c(=O)c2cc(F)c(Cl)cc21 : 1740
18. CC(=O)Cn1cc(-c2csc(N)n2)c(=O)c2cccc(F)c21 : 807
19. C/C(Cn1cc(-c2csc(N)n2)c(=O)c2cc(F)ccc21)=N\NC(N)=S : 82
20. C/C(Cn1cc(-c2csc(N)n2)c(=O)c2cc(F)c(F)cc21)=N\NC(N)=S : 39
21. C/C(Cn1cc(-c2csc(C)n2)c(=O)c2cc(F)ccc21)=N\NC(N)=S : 658
